Every entry's value here was drawn from patent US9095161B2.

Items are presented alongside their recorded dissolved out of feed pellets under water.
# assay.details: Leaching characteristics from feed pellets under water
# Type: physicochemical
# run.parameters: Time 120; 20.0 g pellets in 200 g water, 20° C.
State the answer as a number, implicitly in %.

Record excerpt, results attached:
Give reported dissolved out of feed pellets under water value for CSCCC(N)C(=O)NC(CCSC)C(=O)O (mixture of isomers) [LL/DD/LD/DL-I, DL-methionyl-DL-methionine] 12.3

For the compound CSCCC(N)C(=O)NC(CCSC)C(=O)O (stereo not drawn) [DL/LD-I, DL/LD-methionylmethionine] , give its reported dissolved out of feed pellets under water. 1.7

Identify the reported dissolved out of feed pellets under water for the following entry. CSCCC(N)C(=O)O (racemic) 79.8

Determine its reported dissolved out of feed pellets under water: CSCCC(O)C(=O)[O-].CSCCC(O)C(=O)[O-].[Ca+2] (stereo not drawn) [MHA-Ca, reference compound] 94.1

Give the value of dissolved out of feed pellets under water reported for the following: CSCCC(N)C(=O)NC(CCSC)C(=O)O (stereo not drawn) [LL/DD-I, DD/LL-methionylmethionine] 27.4

Kindly consider the entry below.
Output dissolved out of feed pellets under water of CSCCC(O)C(=O)O (racemic) [MHA, reference compound] 94.1

###

Listed here are molecules together with their documented dissolved out of feed pellets under water.
# assay.details: Leaching characteristics from feed pellets under water
# Format: physicochemical
# run.parameters: Time 10; 20.0 g pellets in 200 g water, 20° C.
The response must be a number in % with no trailing unit.

Solved cases (5 shown):
Identify measured dissolved out of feed pellets under water associated with CSCCC(N)C(=O)NC(CCSC)C(=O)O (stereo not drawn) [LL/DD-I, DD/LL-methionylmethionine] 6.5

Hello, please tell me recorded dissolved out of feed pellets under water for this one: CSCCC(N)C(=O)O (racemic) 16.0

Fill in dissolved out of feed pellets under water for record CSCCC(N)C(=O)NC(CCSC)C(=O)O (stereo not drawn) [DL/LD-I, DL/LD-methionylmethionine] 0.9

Query dissolved out of feed pellets under water for CSCCC(O)C(=O)O (racemic) [MHA, reference compound] 20.8

Tell me its dissolved out of feed pellets under water given CSCCC(O)C(=O)[O-].CSCCC(O)C(=O)[O-].[Ca+2] (stereo not drawn) [MHA-Ca, reference compound] as the entry. 28.2

Here's the next entry for you.
Give reported dissolved out of feed pellets under water value for CSCCC(N)C(=O)NC(CCSC)C(=O)O (mixture of isomers) [LL/DD/LD/DL-I, DL-methionyl-DL-methionine] 3.2

###

Measured dissolved out of feed pellets under water of individual entries
# assay.details: Leaching characteristics from feed pellets under water
# Assay type: physicochemical
# run.parameters: Time 210; 20.0 g pellets in 200 g water, 20° C.
Give the number; % is assumed, so skip it.

Example entries begin here.
Given the compound CSCCC(O)C(=O)O (racemic) [MHA, reference compound] , write its reported dissolved out of feed pellets under water. 99.9

Indicate its recorded dissolved out of feed pellets under water; the compound in question is CSCCC(N)C(=O)NC(CCSC)C(=O)O (mixture of isomers) [LL/DD/LD/DL-I, DL-methionyl-DL-methionine] 17.0

Please list dissolved out of feed pellets under water recorded for the compound CSCCC(N)C(=O)NC(CCSC)C(=O)O (stereo not drawn) [LL/DD-I, DD/LL-methionylmethionine] 35.9

New cases:
Please supply the value of reported dissolved out of feed pellets under water for the item CSCCC(N)C(=O)O (racemic) [Methionine, DL-methionine] 87.8

Determine from records and report dissolved out of feed pellets under water for CSCCC(N)C(=O)NC(CCSC)C(=O)O (stereo not drawn) [DL/LD-I, DL/LD-methionylmethionine] 3.8

Quickly give me recorded dissolved out of feed pellets under water for CSCCC(O)C(=O)[O-].CSCCC(O)C(=O)[O-].[Ca+2] (stereo not drawn) [MHA-Ca, reference compound] 97.0
